- subject-of-test: human prostanoid FP receptor (Homo sapiens, UniProt P43088)
- Construct: expressed in transfected cells
- Sequence (P43088 whole entry): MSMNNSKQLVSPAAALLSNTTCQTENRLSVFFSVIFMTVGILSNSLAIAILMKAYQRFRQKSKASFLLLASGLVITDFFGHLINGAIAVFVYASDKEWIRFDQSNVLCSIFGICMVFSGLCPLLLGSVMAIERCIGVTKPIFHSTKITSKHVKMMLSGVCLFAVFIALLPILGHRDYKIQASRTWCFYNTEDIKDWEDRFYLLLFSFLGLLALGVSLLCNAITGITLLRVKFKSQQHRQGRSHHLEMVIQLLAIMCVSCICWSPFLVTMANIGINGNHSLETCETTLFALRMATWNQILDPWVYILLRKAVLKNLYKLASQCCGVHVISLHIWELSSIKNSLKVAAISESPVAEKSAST
- experimental-details: PG antagonist activity, Ca2+ signal in human recombinant prostanoid receptor stable cell line
- Format: cell-based
- experimental-conditions: parameter and unit not given
experimental-readout: FP (PG antagonist activity)

# annotated cases, reported FP (PG antagonist activity) shown
{"compound": "CCCCCCCCNC(=O)c1coc(C2C3CCC(O3)C2Cc2cc(F)ccc2CCC(=O)O)n1 (stereo not drawn)", "experimental-readout": "FP (PG antagonist activity)", "result": 25}
{"compound": "CCCCCCCCNC(=O)c1coc(C2C3CCC(O3)C2Cc2cc(F)ccc2/C=C/C(=O)O)n1 (stereo not drawn)", "experimental-readout": "FP (PG antagonist activity)", "result": 300}
{"compound": "CCCCCCCCCNC(=O)c1coc(C2C3CCC(O3)C2Cc2cc(F)ccc2/C=C/C(=O)O)n1 (stereo not drawn)", "experimental-readout": "FP (PG antagonist activity)", "result": 230}
{"compound": "O=C(O)CCc1ccc(F)cc1CC1C2CCC(O2)C1c1nc(C(=O)NCCCCC2CCCCC2)co1 (stereo not drawn)", "experimental-readout": "FP (PG antagonist activity)", "result": 35}

(I) O=C(O)/C=C/c1ccc(F)cc1C[C@@H]1C(c2nc(C(=O)NCCCCC3CCCCC3)co2)C2CC[C@H]1O2 (stereo partly drawn)
(II) CCCCCCCCCNC(=O)c1coc(C2C3CC[C@@H](O3)[C@@H]2Cc2cc(F)ccc2CCC(=O)O)n1 (stereo partly drawn)
Given I and II , report the one with the higher recorded FP (PG antagonist activity). Refer to your chosen entry by its label in the reply.
I
(I: 59, II: 12)
